assay: AUC (0 to 24hrs) in Sprague-Dawley rat at 10 mg/kg,po; type: ADME, organism-based; parameters: time < 24 hr, dose 10 mg/kg, route po; conditions: Sprague-Dawley, in vivo
observed-property: AUC(0-t) at 24 h (ng·h/mL)

Here's what some known entries look like.
| compound | unit-abbreviation | AUC(0-t) at 24 h |
| --- | --- | --- |
| NCc1cccc(-n2nc(C(F)(F)F)cc2C(=O)Nc2cccc(C(O)(CCC3CC3)c3cccnc3)c2)c1 (stereo in doubt; 18) | ng·h/mL | 128 |
| NCc1cccc(-n2nc(C(F)(F)F)cc2C(=O)Nc2cc(C(N)(CCC3CC3)c3cccc(C(N)=O)c3)ccc2F)c1 (stereo not drawn) | ng·h/mL | 306 |

1. NCc1cccc(-n2nc(C(F)(F)F)cc2C(=O)Nc2cccc(C(O)(CCC3CC3)c3ccncc3)c2)c1 (stereo in doubt; 23)
2. N#Cc1cccc(C(N)(CCC2CC2)c2ccc(F)c(NC(=O)c3cc(C(F)(F)F)nn3-c3cccc(CN)c3)c2)c1 (stereo in doubt; 37)
3. Cc1cc(C(N)(CCC2CC2)c2ccc(F)c(NC(=O)c3cc(C(F)(F)F)nn3-c3cccc(CN)c3)c2)ccn1 (stereo in doubt; 35)
4. NCc1cccc(-n2nc(C(F)(F)F)cc2C(=O)Nc2cc(C(N)(CCC3CC3)c3ccccn3)ccc2F)c1 (stereo in doubt; 29)
5. NCc1cccc(-n2nc(C(F)(F)F)cc2C(=O)Nc2cc(C(O)(CCC3CC3)c3ccncc3)ccc2F)c1 (stereo in doubt; 25)
In: Order the entries by their reported AUC(0-t) at 24 h, beginning at the minimum. Answer format: the labels, in the requested order.
Out: 1, 5, 4, 3, 2
(1: 11 ng·h/mL, 5: 95 ng·h/mL, 4: 960 ng·h/mL, 3: 1560 ng·h/mL, 2: 3330 ng·h/mL)

a. N#Cc1cccc(C(N)(CCC2CC2)c2ccc(F)c(NC(=O)c3cc(C(F)(F)F)nn3-c3cccc(CN)c3)c2)n1 (stereo not drawn)
b. NCc1cccc(-n2nc(C(F)(F)F)cc2C(=O)Nc2cc(C(N)(CCC3CC3)c3ccc(C(N)=O)nc3)ccc2F)c1 (single isomer, unassigned; (+))
In: Of a versus b , which is the one with smaller reported AUC(0-t) at 24 h? Reply briefly: the label of your chosen item.
Out: b
(b: 134 ng·h/mL, a: 2890 ng·h/mL)

====

test: Cmax in Sprague-Dawley rat at 10 mg/kg,po; type: ADME, organism-based; parameters: dose 10 mg/kg, route po; conditions: Sprague-Dawley, in vivo, read-out: Cmax
observed-property: Cmax (ng/mL)

| molecule | unit-abbreviation | Cmax |
| --- | --- | --- |
| NCc1cccc(-n2nc(C(F)(F)F)cc2C(=O)Nc2cccc(C(O)(CCC3CC3)c3cccnc3)c2)c1 (stereo in doubt; 18) | ng/mL | 51 |

I. N#Cc1cccc(C(N)(CCC2CC2)c2ccc(F)c(NC(=O)c3cc(C(F)(F)F)nn3-c3cccc(CN)c3)c2)c1 (stereo in doubt; 37)
II. NCc1cccc(-n2nc(C(F)(F)F)cc2C(=O)Nc2cc(C(N)(CCC3CC3)c3cccc(C(N)=O)c3)ccc2F)c1 (stereo not drawn)
In: Of I versus II , which is the one with smaller reported Cmax? Reply briefly: the label of your chosen item.
Out: II
(II: 17 ng/mL, I: 429 ng/mL)

I. N#Cc1cccc(C(N)(CCC2CC2)c2ccc(F)c(NC(=O)c3cc(C(F)(F)F)nn3-c3cccc(CN)c3)c2)n1 (stereo not drawn)
II. NCc1cccc(-n2nc(C(F)(F)F)cc2C(=O)Nc2cccc(C(O)(CCC3CC3)c3ccncc3)c2)c1 (stereo in doubt; 23)
In: Exercise: compare I and II ; which one has the greater Cmax? Reply briefly: the label of your chosen item.
Out: I
(I: 676 ng/mL, II: 7 ng/mL)

P. Cc1cc(C(N)(CCC2CC2)c2ccc(F)c(NC(=O)c3cc(C(F)(F)F)nn3-c3cccc(CN)c3)c2)ccn1 (stereo in doubt; 35)
Q. NCc1cccc(-n2nc(C(F)(F)F)cc2C(=O)Nc2cc(C(N)(CCC3CC3)c3ccc(C(N)=O)nc3)ccc2F)c1 (single isomer, unassigned; (+))
R. NCc1cccc(-n2nc(C(F)(F)F)cc2C(=O)Nc2cc(C(O)(CCC3CC3)c3ccncc3)ccc2F)c1 (stereo in doubt; 25)
S. NCc1cccc(-n2nc(C(F)(F)F)cc2C(=O)Nc2cc(C(N)(CCC3CC3)c3cccnc3)ccc2F)c1 (stereo in doubt; 31)
In: Output the entries ranked by Cmax from maximum down to minimum. Answer format: the labels, in the requested order.
Out: P, S, R, Q

a. NCc1cccc(-n2nc(C(F)(F)F)cc2C(=O)Nc2cc(C(O)(CCC3CC3)c3cccnc3)ccc2F)c1 (stereo in doubt; 20)
b. NCc1cccc(-n2nc(C(F)(F)F)cc2C(=O)Nc2cc(C(N)(CCC3CC3)c3ccccn3)ccc2F)c1 (stereo in doubt; 29)
c. NCc1cccc(-n2nc(C(F)(F)F)cc2C(=O)Nc2cc(C(N)(CCC3CC3)c3ccncc3)ccc2F)c1 (stereo in doubt; 33)
In: Order the entries by their reported Cmax, beginning at the minimum. Answer format: the labels, in the requested order.
Out: c, b, a
(c: 93 ng/mL, b: 157 ng/mL, a: 383 ng/mL)
